Tested on: Bronchial epithelial cells
Assay: BioMAP BE4T system (IL-4 + TNF-a), scoring of readout parameters
Format: cell-based, human
Protocol: In the “BE4T” system, bronchial epithelial cells, usually primary human bronchial epithelial cells, are cultured in the presence of TNF-α and IL-4. Each screened compound is scored according to its modulation of the selected readout parameters. Compounds receive a positive score (score of 1) or negative score (score of 0) for each readout parameter set forth in Table 2 that is modulated in the desired direction. […] Readout Parameter Measurements. The levels of readout parameters were measured by ELISA. […]
assay.metric: uPA score

compound	assay.metric	reported
C=C(NC(=O)C(=C)NC(=O)c1csc(C2=N[C@@H]3c4csc(n4)[C@H]4NC(=O)c5csc(n5)[C@H]([C@](C)(O)[C@@H](C)O)NC(=O)[C@H]5CSC(=N5)/C(=C/C)NC(=O)[C@H]([C@@H](C)O)NC(=O)c5csc(n5)[C@]3(CC2)NC(=O)[C@H](C)NC(=O)C(=C)NC(=O)[C@H](C)NC(=O)[C@H]([C@@H](C)CC)N[C@@H]2C=Cc3c([C@H](C)O)cc(nc3[C@H]2O)C(=O)O[C@@H]4C)n1)C(N)=O	uPA score	0
Fc1ccc(C(OCCN2CCN(CCCc3ccccc3)CC2)c2ccc(F)cc2)cc1	uPA score	0
Cc1[nH]ccc2c1[nH]c1cc(=O)ccc12	uPA score	0
O=C(O)c1ccccc1Nc1cccc(C(F)(F)F)c1	uPA score	0
CCc1oc2ccccc2c1C(=O)c1cc(Br)c(O)c(Br)c1	uPA score	1
C[C@]12C=CC(=O)C=C1CC[C@@H]1[C@@H]2[C@@H](O)C[C@@]2(C)[C@H]1CC[C@]2(O)C(=O)CO	uPA score	0
Cc1cc(C2CCCCC2)n(O)c(=O)c1.NCCO	uPA score	0
O=c1cc(-c2ccc(O)c(O)c2)oc2cc(O)cc(O)c12	uPA score	0
Cc1c(Cl)cccc1Nc1ccccc1C(=O)O	uPA score	0
Cn1cnc([N+](=O)[O-])c1Sc1ncnc2nc[nH]c12	uPA score	0
COc1cc(-c2ccc(=O)[nH]n2)ccc1OC(F)F	uPA score	0
CCCCN(CCCC)CCC(O)c1cc2c(Cl)cc(Cl)cc2c2cc(C(F)(F)F)ccc12 (centres unmarked)	uPA score	0
C=C1CC[C@H](O)C/C1=C/C=C1\CCC[C@]2(C)[C@@H]([C@H](C)/C=C/[C@H](C)C(C)C)CC[C@@H]12	uPA score	1
COC(=O)Nc1nc2ccc(SC(C)C)cc2[nH]1	uPA score	0
COc1cc2c(c(OC)c1OC)-c1ccc(OC)c(=O)cc1[C@@H](NC(C)=O)CC2	uPA score	1
COc1cc(/C=C/C(=O)N2CCC=CC2=O)cc(OC)c1OC	uPA score	0
CCN(CC)CCNc1ccc(CO)c2sc3ccccc3c(=O)c12	uPA score	0

---

Quick reference: MMP-3 score of the listed items.
Test system: Bronchial epithelial cells + Fibroblasts
Test: BioMAP BF4T system (IL-4 + TNF-α), scoring of readout parameters
Type: cell-based, human
Parameters: key: 1 = modulated in desired direction, 0 = not (−1 if opposite)
Settings: desired change decrease
Description: In the “BF4T” system, bronchial epithelial cells, usually primary human bronchial epithelial cells, are cultured with fibroblasts, usually primary human fibroblasts, in the presence of TNF-α and IL-4. […] Each screened compound is scored according to its modulation of the selected readout parameters. Compounds receive a positive score (score of 1) or negative score (score of 0) for each readout parameter set forth in Table 2 that is modulated in the desired direction. […]

compound	MMP-3 score
C[C@]12C=CC(=O)C=C1CC[C@@H]1[C@@H]2[C@@H](O)C[C@@]2(C)[C@H]1CC[C@]2(O)C(=O)CO	0
Cn1cnc([N+](=O)[O-])c1Sc1ncnc2nc[nH]c12	0
CCN(CC)CCNc1ccc(CO)c2sc3ccccc3c(=O)c12	0
COC(=O)Nc1nc2ccc(SC(C)C)cc2[nH]1	1
C=C1CC[C@H](O)C/C1=C/C=C1\CCC[C@]2(C)[C@@H]([C@H](C)/C=C/[C@H](C)C(C)C)CC[C@@H]12	0
O=C(O)c1ccccc1Nc1cccc(C(F)(F)F)c1	0
CCc1oc2ccccc2c1C(=O)c1cc(Br)c(O)c(Br)c1	1
CCCCN(CCCC)CCC(O)c1cc2c(Cl)cc(Cl)cc2c2cc(C(F)(F)F)ccc12 (stereo not shown)	0
COc1cc2c(c(OC)c1OC)-c1ccc(OC)c(=O)cc1[C@@H](NC(C)=O)CC2	0
Fc1ccc(C(OCCN2CCN(CCCc3ccccc3)CC2)c2ccc(F)cc2)cc1	0
Cc1c(Cl)cccc1Nc1ccccc1C(=O)O	1
O=c1cc(-c2ccc(O)c(O)c2)oc2cc(O)cc(O)c12	0
COc1cc(-c2ccc(=O)[nH]n2)ccc1OC(F)F	0

---

Below, each entry is listed alongside its reported TF score.
tested on: Peripheral Blood Mononuclear Cells + Umbilical Vein Endothelial Cells; assay: BioMAP LPS system (TLR4), scoring of readout parameters; assay type: cell-based, human; settings: LPS (by position); desired change decrease
assay.metric: TF score

given.smiles	assay.metric	reported
C[C@]12C=CC(=O)C=C1CC[C@@H]1[C@@H]2[C@@H](O)C[C@@]2(C)[C@H]1CC[C@]2(O)C(=O)CO	TF score	0
Cn1cnc([N+](=O)[O-])c1Sc1ncnc2nc[nH]c12	TF score	0
Cc1cc(C2CCCCC2)n(O)c(=O)c1.NCCO	TF score	0
CCN(CC)CCNc1ccc(CO)c2sc3ccccc3c(=O)c12	TF score	1
O=c1cc(-c2ccc(O)c(O)c2)oc2cc(O)cc(O)c12	TF score	1
Cc1[nH]ccc2c1[nH]c1cc(=O)ccc12	TF score	1
CCc1oc2ccccc2c1C(=O)c1cc(Br)c(O)c(Br)c1	TF score	0
Cc1c(Cl)cccc1Nc1ccccc1C(=O)O	TF score	0
COc1cc2c(c(OC)c1OC)-c1ccc(OC)c(=O)cc1[C@@H](NC(C)=O)CC2	TF score	0
O=C(O)c1ccccc1Nc1cccc(C(F)(F)F)c1	TF score	0
COc1cc(-c2ccc(=O)[nH]n2)ccc1OC(F)F	TF score	1
COc1cc(/C=C/C(=O)N2CCC=CC2=O)cc(OC)c1OC	TF score	1

---

test system: Bronchial epithelial cells; assay: BioMAP BE3C system (IL-1β + TNF-α + IFN-γ), scoring of readout parameters; assay type: cell-based, human
Quick reference: MMP-1 score of the listed items.

molecule	MMP-1 score
C[C@]12C=CC(=O)C=C1CC[C@@H]1[C@@H]2[C@@H](O)C[C@@]2(C)[C@H]1CC[C@]2(O)C(=O)CO	0
CCc1oc2ccccc2c1C(=O)c1cc(Br)c(O)c(Br)c1	1
Cc1cc(C2CCCCC2)n(O)c(=O)c1.NCCO	0
C=C1CC[C@H](O)C/C1=C/C=C1\CCC[C@]2(C)[C@@H]([C@H](C)/C=C/[C@H](C)C(C)C)CC[C@@H]12	1
Fc1ccc(C(OCCN2CCN(CCCc3ccccc3)CC2)c2ccc(F)cc2)cc1	1
O=C(O)c1ccccc1Nc1cccc(C(F)(F)F)c1	0
COc1cc2c(c(OC)c1OC)-c1ccc(OC)c(=O)cc1[C@@H](NC(C)=O)CC2	0
COC(=O)Nc1nc2ccc(SC(C)C)cc2[nH]1	0
COc1cc(-c2ccc(=O)[nH]n2)ccc1OC(F)F	0
O=c1cc(-c2ccc(O)c(O)c2)oc2cc(O)cc(O)c12	0
C=C(NC(=O)C(=C)NC(=O)c1csc(C2=N[C@@H]3c4csc(n4)[C@H]4NC(=O)c5csc(n5)[C@H]([C@](C)(O)[C@@H](C)O)NC(=O)[C@H]5CSC(=N5)/C(=C/C)NC(=O)[C@H]([C@@H](C)O)NC(=O)c5csc(n5)[C@]3(CC2)NC(=O)[C@H](C)NC(=O)C(=C)NC(=O)[C@H](C)NC(=O)[C@H]([C@@H](C)CC)N[C@@H]2C=Cc3c([C@H](C)O)cc(nc3[C@H]2O)C(=O)O[C@@H]4C)n1)C(N)=O	0
Cn1cnc([N+](=O)[O-])c1Sc1ncnc2nc[nH]c12	0
CCN(CC)CCNc1ccc(CO)c2sc3ccccc3c(=O)c12	0
CCCCN(CCCC)CCC(O)c1cc2c(Cl)cc(Cl)cc2c2cc(C(F)(F)F)ccc12 (centres unmarked)	1
COc1cc(/C=C/C(=O)N2CCC=CC2=O)cc(OC)c1OC	0
Cc1c(Cl)cccc1Nc1ccccc1C(=O)O	1
Cc1[nH]ccc2c1[nH]c1cc(=O)ccc12	0

---

system: Peripheral Blood Mononuclear Cells + Umbilical Vein Endothelial Cells; assay: BioMAP LPS system (TLR4), scoring of readout parameters; assay type: cell-based, human; details: LPS (by position); desired change decrease

compound	TF score
COC(=O)Nc1nc2ccc(SC(C)C)cc2[nH]1	1
C=C(NC(=O)C(=C)NC(=O)c1csc(C2=N[C@@H]3c4csc(n4)[C@H]4NC(=O)c5csc(n5)[C@H]([C@](C)(O)[C@@H](C)O)NC(=O)[C@H]5CSC(=N5)/C(=C/C)NC(=O)[C@H]([C@@H](C)O)NC(=O)c5csc(n5)[C@]3(CC2)NC(=O)[C@H](C)NC(=O)C(=C)NC(=O)[C@H](C)NC(=O)[C@H]([C@@H](C)CC)N[C@@H]2C=Cc3c([C@H](C)O)cc(nc3[C@H]2O)C(=O)O[C@@H]4C)n1)C(N)=O	1
Fc1ccc(C(OCCN2CCN(CCCc3ccccc3)CC2)c2ccc(F)cc2)cc1	0
C=C1CC[C@H](O)C/C1=C/C=C1\CCC[C@]2(C)[C@@H]([C@H](C)/C=C/[C@H](C)C(C)C)CC[C@@H]12	0
CCCCN(CCCC)CCC(O)c1cc2c(Cl)cc(Cl)cc2c2cc(C(F)(F)F)ccc12 (centres unmarked)	0
